Biological target: T1, Ube2N (UniProt P61088 1-152)
T1 construct: Ube2N, ubiquitin-conjugating enzyme E2 N; also called wtUbe2N; source: E. coli Rossetta2 (DE3), purified (ion exchange, SEC)
T1 sequence (looked up): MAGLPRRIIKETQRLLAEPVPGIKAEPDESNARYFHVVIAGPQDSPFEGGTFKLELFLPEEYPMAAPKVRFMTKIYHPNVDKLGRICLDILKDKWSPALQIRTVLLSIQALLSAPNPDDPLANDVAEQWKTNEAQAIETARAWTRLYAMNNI
Assay: ITC; ZNRF1^CTD in the cell, Ube2N in the syringe; 25°C; Na-phosphate pH 8.0, 450 mM NaCl; single site model
Conditions: both partners purified
ENDPOINT NAME: Kd (nM)
# unit: nM | format: bare number

Name the reported Kd value associated with the binder ZNRF1^CTD (C-terminal domain of ZNRF1, residues 139–227) (domain or fragment, UniProt Q8ND25 139-227, looked up, ZNRF1, RING E3 ubiquitin ligase, residues 139-227 of the full-length protein (ZnF and RING domains); also called ZNRF1 C-terminal domain; ZRNF1^CTD; source: E. coli Rossetta2 (DE3), purified (HisTrap, SEC)) SHSGFKCPICSKSVASDEMEMHFIMCLSKPRLSYNDDVLTKDAGECVICLEELLQGDTIARLPCLCIYHKSCIDSWFEVNRSCPEHPAD 225
